Test system: Enterococcus sp.
PROTOCOL_NOTES: In vitro antibacterial evaluation: minimum inhibitory concentration (MIC), broth dilution method
Assay type: cell-based
MEASUREMENT_PARAMETERS: Enterococcus faecalis (GC 4553); 18 hours at 35° C.
RESULT_TYPE: MIC Enterococcus faecalis (GC 4553) (µg/mL)

INSERT INTO assay_data (molecule, result_type, unit_name, test_value) VALUES
  ('CC(c1ccccc1)C1NC(=O)CNC(=O)C(CO)NC(=O)C(C(O)C2CNC(=N)N2C2OC(CO)C(O)C(O)C2O)NC(=O)C(C(O)C2CNC(=N)N2)NC(=O)C(Cc2ccc(OC3OC(CO)C(OC4OC5COC6(CC7CCC6(C)C7(C)C)OC5C(O)C4O)C(O)C3O)cc2)NC1=O (stereo not shown)', 'MIC Enterococcus faecalis (GC 4553)', 'µg/mL', 2),
  ('CC(c1ccccc1)C1NC(=O)CNC(=O)C(CO)NC(=O)C(C(O)C2CNC(=N)N2C2OC(CO)C(O)C(O)C2O)NC(=O)C(C(O)C2CNC(=N)N2)NC(=O)C(Cc2ccc(OC3OC(CO)C(OC4OC5COC6(OC5C(O)C4O)C(C)CCCC6C)C(O)C3O)cc2)NC1=O (stereo not shown)', 'MIC Enterococcus faecalis (GC 4553)', 'µg/mL', 2),
  ('CC(c1ccccc1)C1NC(=O)CNC(=O)C(CO)NC(=O)C(C(O)C2CNC(=N)N2C2OC(CO)C(O)C(O)C2O)NC(=O)C(C(O)C2CNC(=N)N2)NC(=O)C(Cc2ccc(OC3OC(CO)C(OC4OC(CO)C(OCC=C(c5ccccc5)c5ccccc5)C(O)C4O)C(O)C3O)cc2)NC1=O (stereo not shown) [Example 241a]', 'MIC Enterococcus faecalis (GC 4553)', 'µg/mL', 4),
  ('CC(c1ccccc1)C1NC(=O)CNC(=O)C(CO)NC(=O)C(C(O)C2CNC(=N)N2C2OC(CO)C(O)C(O)C2O)NC(=O)C(C(O)C2CNC(=N)N2)NC(=O)C(Cc2ccc(OC3OC(CO)C(OC4OC5COC(C)(c6ccc(F)cc6)OC5C(O)C4O)C(O)C3O)cc2)NC1=O (stereo not shown)', 'MIC Enterococcus faecalis (GC 4553)', 'µg/mL', 4);

----------
The compounds listed here are annotated with their MIC Streptococcus pneumoniae (GC 1894).
Test system: Streptococcus sp.
PROTOCOL_NOTES: In vitro antibacterial evaluation: minimum inhibitory concentration (MIC), broth dilution method
Format: cell-based
MEASUREMENT_PARAMETERS: broth dilution, 5×10^5 CFU/mL, 18 hours at 35° C.
RESULT_TYPE: MIC Streptococcus pneumoniae (GC 1894)

INSERT INTO assay_data (compound, test_value) VALUES
  ('N=C1NCC(C(O)C2NC(=O)C(Cc3ccc(OC4OC(CO)C(OC5OC6COC7(OC6C(O)C5O)C5CC6CC(C5)CC7C6)C(O)C4O)cc3)NC(=O)C(CC3CCCCC3)NC(=O)CNC(=O)C(CO)NC(=O)C(C(O)C3CNC(=N)N3C3OC(CO)C(O)C(O)C3O)NC2=O)N1 (centres unmarked) [Example 106]', '<0.03 mg/L'),
  ('CCCCOC(=O)CCC1OCC2OC(OC3C(CO)OC(Oc4ccc(CC5NC(=O)C(C(C)c6ccccc6)NC(=O)CNC(=O)C(CO)NC(=O)C(C(O)C6CNC(=N)N6C6OC(CO)C(O)C(O)C6O)NC(=O)C(C(O)C6CNC(=N)N6)NC5=O)cc4)C(O)C3O)C(O)C(O)C2O1 (centres unmarked) [Example 114]', '<0.06 mg/L');
